Recorded Rabbit Psoas IC25 by entry
test system: Rabbit Skeletal myofibrils (rabbit psoas muscle); experiment: Myofibril ATPase assay (PK/LDH NADH-coupled), skeletal myofibrils; format: biochemical; conditions: Table 8
recorded.metric: Rabbit Psoas IC25

>>> value_measured("C[C@@H](NC(=O)CN1Cc2cc(F)ccc2NC1=O)c1ncccn1")
"100000 nM"
>>> value_measured("C[C@H](NC(=O)CN1Cc2c(C#N)cccc2NC1=O)c1ccc(C#N)cn1")
"74.3 nM"
>>> value_measured("C[C@@H](NC(=O)CN1Cc2c(ccc(F)c2F)NC1=O)c1ncc(C#N)s1")
"1080 nM"
>>> value_measured("C[C@@H](NC(=O)CN1Cc2c(C#N)cccc2NC1=O)c1ccc(C#N)cn1")
"100000 nM"
>>> value_measured("C[C@@H](NC(=O)CN1Cc2c(ccc(F)c2F)NC1=O)c1ncc(Cl)cc1F")
"5776 nM"
>>> value_measured("C[C@@H](NC(=O)CN1C(=O)Nc2ccc(F)cc2C12CC2)c1ncc(F)cc1F")
"472.8 nM"
>>> value_measured("Cc1nc(C#N)cnc1C(C)NC(=O)CN1Cc2c(ccc(F)c2F)NC1=O (single isomer, unassigned)")
"11.4 nM"
>>> value_measured("C[C@H](NC(=O)CN1Cc2cc(CN(C)C)ccc2NC1=O)c1ncc(C#N)cc1F")
"36830 nM"
>>> value_measured("C[C@@H](NC(=O)CN1Cc2c(ccc(F)c2F)NC1=O)c1ncc(C#N)cc1F")
"422.8 nM"
>>> value_measured("N#Cc1cnc2c(c1)OC[C@@H]2NC(=O)CN1C(=O)Nc2cccc(C#N)c2C12CC2")
"100000 nM"
>>> value_measured("C[C@H](NC(=O)CN1Cc2c(ccc(F)c2F)NC1=O)c1nnc2c(Cl)cc(C(F)(F)F)cn12")
"93470 nM"
>>> value_measured("Cc1cc(C#N)nnc1C(C)NC(=O)CN1Cc2c(ccc(F)c2F)NC1=O (single isomer, unassigned)")
"12.4 nM"
>>> value_measured("C[C@H](NC(=O)CN1Cc2c(C#N)cccc2NC1=O)c1ncc(F)cc1F")
"31.5 nM"
>>> value_measured("Cc1cc(F)cnc1[C@@H](C)NC(=O)CN1Cc2c(ccc(F)c2F)NC1=O")
"10640 nM"
>>> value_measured("CC1c2ccccc2NC(=O)N1CC(=O)N[C@@H](CO)c1ccc(F)cc1F (single isomer, unassigned)")
"2863 nM"
>>> value_measured("N#Cc1c(F)ccc2c1CN(CC(=O)N[C@@H]1COc3cc(F)cc(F)c31)C(=O)N2")
"13.93 nM"

====

Measured Rabbit Psoas IC25 accompanies every entry in the list below.
system: Rabbit Skeletal myofibrils (rabbit psoas muscle); test: Myofibril ATPase assay (PK/LDH NADH-coupled), skeletal myofibrils; format: biochemical; details: Table 8
recorded.metric: Rabbit Psoas IC25 (µM)

>>> value_measured("C[C@H](NC(=O)CN1C(=O)Nc2ccccc2[C@H]1C)c1ccc(F)cc1F [Compound B156]")
0.232
>>> value_measured("C[C@@H](NC(=O)CN1Cc2cc3c(cc2NC1=O)OCCO3)c1ncc(C#N)cc1F")
30.80
>>> value_measured("CC(C)C[C@@H](C(=O)N[C@H](C)c1ccc(F)cc1F)N1Cc2cc(F)ccc2NC1=O")
100
>>> value_measured("CC1c2ccccc2NC(=O)N1CC(=O)N[C@@H](C)c1ccc(F)cc1F (some centres unmarked)")
0.695
>>> value_measured("Cc1cccnc1[C@@H](C)NC(=O)CN1Cc2cc(F)ccc2NC1=O")
100
>>> value_measured("C[C@H](NC(=O)CN1Cc2cc(F)ccc2NC1=O)c1ncc(C#N)cc1F")
0.0394
>>> value_measured("Cc1nsc([C@@H](C)NC(=O)CN2Cc3c(ccc(F)c3F)NC2=O)n1")
13.87
>>> value_measured("O=C(CN1Cc2c(ccc(F)c2F)NC1=O)N[C@H]1COCc2cc(F)cc(F)c21")
100
